- testDetails: NCI Yeast Anticancer Drug Screen. Data for the mlh1 strain (AID 171);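 also: 0% = growth of vehicle-treated control cultures of the same strain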
- conditionLabel: S. cerevisiae mlh1 strain growth inhibition; at 11.0 µM; stronger effect = higher value
This is part of a sample that, as a whole, favours compounds with a hit. Of some 79,000 tested, about 15% had one in any assay.
assayEndpoint: growth inhibition (%)
State just the number; it will be interpreted in %.

Form field: reported growth inhibition of CN(N=O)c1ccc(/C=C/c2ccnc3ccccc23)cc1 13

Form field: reported growth inhibition of N#Cc1sc2c(c1OC(=O)c1ccco1)c(=O)n(-c1ccccc1)c(=S)n2-c1ccccc1 -2

Form field: reported growth inhibition of CC(C)c1[nH]nc(C(N)=O)c1N=NN(C)C -2

Form field: reported growth inhibition of CC1OC(OC2CCCc3c(O)c4c(c(O)c32)C(=O)c2ccccc2C4=O)CC(N)C1O (configuration not stated) 16

Form field: reported growth inhibition of CCC(=O)Oc1ccc(/C=N/NC(N)=S)nc1 -6

Form field: reported growth inhibition of CC1(C)C(C=O)=CCC1CC(N)=O (configuration not stated) 4

Form field: reported growth inhibition of CC(=O)Oc1ccc(C(=O)c2ccccc2)c(O)c1 0

Form field: reported growth inhibition of N#C/C(=C/N1C(=O)/C(=C/c2ccc([N+](=O)[O-])cc2)SC1=S)c1nc2ccccc2s1 13

Form field: reported growth inhibition of O=c1[nH]cc(/C=N\Nc2ccccc2)c(=O)[nH]1 17

Form field: reported growth inhibition of COc1cc(CNc2ccc(C(C)C)cc2)cc(OC)c1OC -15

Form field: reported growth inhibition of O=C(/C=C/c1cccc(Br)c1)c1ccc(Cl)cc1 -7

Form field: reported growth inhibition of N#C/C(=C\c1ccccc1)c1ccccc1F 0
